TEST_TARGET: FLT4/VEGFR3 (Homo sapiens (Human))
Sequence (P35916 25-1363): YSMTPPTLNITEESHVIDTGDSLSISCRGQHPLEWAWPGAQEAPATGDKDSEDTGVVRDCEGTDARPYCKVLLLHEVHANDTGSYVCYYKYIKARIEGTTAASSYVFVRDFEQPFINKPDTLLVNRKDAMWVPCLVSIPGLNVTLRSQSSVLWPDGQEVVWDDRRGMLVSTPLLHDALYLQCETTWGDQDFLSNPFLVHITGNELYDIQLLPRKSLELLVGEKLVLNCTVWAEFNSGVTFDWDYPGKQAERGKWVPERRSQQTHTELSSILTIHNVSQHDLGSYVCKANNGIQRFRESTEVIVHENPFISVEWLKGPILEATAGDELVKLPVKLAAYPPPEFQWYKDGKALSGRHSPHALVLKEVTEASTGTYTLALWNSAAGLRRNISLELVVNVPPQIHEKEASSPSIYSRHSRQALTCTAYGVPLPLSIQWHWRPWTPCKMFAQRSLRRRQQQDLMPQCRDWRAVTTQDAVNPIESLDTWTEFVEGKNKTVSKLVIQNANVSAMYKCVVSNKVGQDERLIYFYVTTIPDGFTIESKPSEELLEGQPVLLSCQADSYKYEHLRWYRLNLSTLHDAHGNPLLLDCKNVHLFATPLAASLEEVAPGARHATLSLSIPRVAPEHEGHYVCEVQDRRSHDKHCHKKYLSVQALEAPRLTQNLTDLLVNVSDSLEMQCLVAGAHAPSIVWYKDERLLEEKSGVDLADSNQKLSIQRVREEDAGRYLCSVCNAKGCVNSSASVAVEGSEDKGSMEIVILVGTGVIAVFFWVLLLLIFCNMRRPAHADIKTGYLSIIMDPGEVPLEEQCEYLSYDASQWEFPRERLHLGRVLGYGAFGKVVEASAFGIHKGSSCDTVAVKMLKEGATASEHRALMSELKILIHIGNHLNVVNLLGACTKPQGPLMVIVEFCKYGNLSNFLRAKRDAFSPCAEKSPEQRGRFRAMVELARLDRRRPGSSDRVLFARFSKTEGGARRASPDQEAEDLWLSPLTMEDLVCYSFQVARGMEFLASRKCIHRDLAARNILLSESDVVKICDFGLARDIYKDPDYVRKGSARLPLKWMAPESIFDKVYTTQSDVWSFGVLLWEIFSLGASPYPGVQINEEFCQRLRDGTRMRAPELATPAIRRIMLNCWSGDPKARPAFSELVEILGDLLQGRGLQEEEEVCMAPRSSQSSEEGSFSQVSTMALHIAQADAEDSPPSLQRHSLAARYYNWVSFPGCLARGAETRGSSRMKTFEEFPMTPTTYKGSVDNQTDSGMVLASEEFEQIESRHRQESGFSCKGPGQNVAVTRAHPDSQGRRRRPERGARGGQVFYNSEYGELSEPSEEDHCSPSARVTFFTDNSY
EXPERIMENT_NOTES: Broad kinase panel screening
From the text: Example 16: Broad Kinase Panel Screening (359) Major hits out of 359 were: ALK, ARK, c-MER, CLK1, DYRK, GSK3a, GSK3b, FLT2, FLT3, MLK1, SIK2, TNIK, and YSK4.
VALUE_TYPE: IC50 (nM)
One number for each entry, in nM.

Query: Lab note: need IC50 for CN(C)CCC1CCN(CCS(=O)(=O)c2ccc(-c3cnc(N)c(C(=O)Nc4ccccc4)n3)cc2)CC1 on FLT4/VEGFR3 (Homo sapiens (Human)), anyone have it?
Result: 63.4
